The reported measurements were obtained from patent US20030059769.

Target: T1, soluble L-selectin (Homo sapiens, UniProt P14151 P14151:39-332)
T1 sequence: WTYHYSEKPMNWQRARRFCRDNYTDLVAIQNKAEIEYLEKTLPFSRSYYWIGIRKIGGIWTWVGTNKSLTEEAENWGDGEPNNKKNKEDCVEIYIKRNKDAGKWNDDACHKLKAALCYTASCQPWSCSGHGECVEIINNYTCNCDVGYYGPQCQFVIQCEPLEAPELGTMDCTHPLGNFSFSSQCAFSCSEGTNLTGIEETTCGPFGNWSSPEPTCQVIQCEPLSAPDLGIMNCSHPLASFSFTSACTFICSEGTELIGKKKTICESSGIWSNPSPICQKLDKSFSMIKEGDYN
Assay: filter; 37 C
Conditions: tags: R&D Systems
List of Kd values.
Give the number; nM is assumed, so skip it.

binder	observation.type	endpoint.result
LF1815 (ssRNA, 2'-F C and U) RNA: GGGAGGACGAUGCGGCCAUCGGUCUUGGGCAACGCGUUUUCGAGUUACCUAUGGUCAGACGACUCGCCCGA	Kd	0.18
LF1536 (ssRNA, 2'-F C and U) RNA: GGGAAGACGAUGCGGCGCUCAAAUAAUGCGUUAAUCGAAUUCGCCCAGACGACUCGCCCGA	Kd	0.22
LF1521 (ssRNA, 2'-F C and U) RNA: GAGGACGAUGCGGGCUCUUAAGCAACGUGUUAUCAAGUUAGCCCAGACGACUCGCCCGA	Kd	0.25

Recorded Kd (binder LF1712 (ssRNA, 2'-F C and U) RNA: GGGAGGACGAUGCGGGAUCUUAAGCAGUGCGUUAUUCGAACUAUCCCAGACGACUCGCCCGA ): 0.065
